Each recorded value in this set is attributed to ChEMBL document CHEMBL5665443.

measurement.target: Adenine DNA glycosylase (Homo sapiens);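 note: human MUTYH activity read as 594 nm fluorescence from cleavage and release of a quenched DNA duplex, coupled with APE1 for strand incision, lower signal meaning inhibition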
condition: Compound Concentration 10.0 uM, Hit No
Description: Inhibition of MUTYH by quantifying inhibition of MUTYH-mediated cleavage and dissociation of quenched duplex DNA oligonucleotides, measured as fluorescence at 594 nm. To generate a functional strand incision and increase turn-over this assay is coupled to APE1.
Can you tell me inhibition for the items I'm about to list?
Record the value in %, omitting the unit from your answer.

Quick one: inhibition for COc1cc(NC(=O)c2ccc(-c3ccc(Cl)cc3)o2)cc(OC)c1 ? -0.703

Any idea what its inhibition is? The compound is O=C(O)COc1cccc(CN(Cc2ccc(-n3cccn3)cc2)S(=O)(=O)c2cccnc2)c1 5.01

Can you look up the measured inhibition of Cc1cnc(-c2cc(N3CCN(C(=O)CCS(C)(=O)=O)CC3)ncc2Cl)c(C)c1 for me? 0.917

What inhibition value was documented for this compound, O=C(COc1cccc2ccccc12)Nc1cc(Cl)ccc1C(=O)O ? 64.4

Entry CC(COc1ccccc1)N(CCCl)Cc1ccccc1 (centres undefined) : reported inhibition = ? 20.2

Look up inhibition for this compound: CC(=O)Nc1ncc(CN2CCC[C@H](Cc3cc(C)nc(C)c3)C2)s1 9.89

Fill in the blank: the reported inhibition of COCc1nc2cnc3cc(-c4c(C)noc4C)c(OC[C@H]4CCNC4)cc3c2n1[C@H](C)c1ccccc1 is ____. 2.41

Record request: inhibition value, item CCCCCCCCc1ccc(CC[C@](N)(CO)COP(=O)(O)O)cc1 6.04

I have this compound here, C[C@H](NC(=O)[C@H](Cc1ccccc1)NC(=O)[C@H](CCC(N)=O)NC(=O)CNC(=O)[C@@H]1CCCN1C(=O)[C@H](Cc1ccccc1)NC(=O)[C@@H](N)Cc1ccc(O)cc1)C(=O)N[C@@H](Cc1ccccc1)C(=O)N[C@@H](CO)C(=O)O , and I need its recorded inhibition. 2.52

Reported inhibition, compound CC(C)(C[C@H]1CN(S(=O)(=O)c2cccc(C(F)(F)F)c2)c2cc(-c3cc(F)cc(OC(F)F)c3)ccc2O1)C(=O)O : ____ 4.92

# inhibition lookup, item CN[C@@H]1Cc2cccc3[nH]c(=O)n(c23)C1 46.8

Consider the compound shown here: NCCCCN(Cc1nc2ccccc2[nH]1)[C@H]1CCCc2cccnc21 What is its recorded inhibition? 5.47

Look up inhibition for this compound: COCCCN1CCC(NC(=O)c2cc(Cl)c(N)c3c2OCC3)CC1 17.3

Return reported inhibition; argument: C[C@H](CCOc1cccc(CC(=O)O)c1)N(Cc1cccc(C(F)(F)F)c1Cl)CC(c1ccccc1)c1ccccc1 -7.97

Which inhibition value belongs to O=C(N1CCS(=O)(=O)CC1)N1C[C@H](c2ccc(OC(F)(F)F)cc2)C[C@H](c2nc(C3CC3)no2)C1 ? 1.64

Look up inhibition: N[C@@H](Cn1cc(F)c(=O)[nH]c1=O)C(=O)O 6.98

Name the recorded inhibition for O=S1(=O)NCN(C2CC2)c2ccc(F)cc21 . 6.74

// lookup inhibition for c1cnc2cc3c(cc2n1)[C@@H]1CNC[C@H]3C1 34.7

Entry CC(C)Oc1ccccc1C(=O)Nc1ccccc1C(=O)Nc1cccc(S(=O)(=O)C(F)(F)F)c1 has what inhibition? 8.72

Consider the compound shown here: O=C1c2cccc3c2[C@H](CCC3)CN1[C@@H]1CN2CCC1CC2 What is its recorded inhibition? -5.22

Look up inhibition: Cc1ccc(-c2ccc(F)cc2COc2ccc(CCC(=O)O)cc2)cc1 37.1

Entry COc1ccc(/C=C/CCCCOc2ccc(C(=O)c3cccc(C(=O)O)c3)cc2CCC(=O)O)cc1 : reported inhibition = ? 28.6

I'd like to know its inhibition. The compound in question is Cc1cnc(CNCC2(F)CCN(C(=O)c3ccc(F)c(Cl)c3)CC2)nc1 -3.43

Which inhibition value is on record for Cc1cc(NC(=O)NCCN2CCC(O)(Cc3ccccc3)CC2)c2ccccc2n1 ? 17.8

====

measurement.target: Single-strand selective monofunctional uracil DNA glycosylase (Homo sapiens)
condition: Compound Concentration 10.0 uM, Hit No
Description: Inhibition of SMUG1 by quantifying inhibition of SMUG1-mediated cleavage and dissociation of quenched duplex DNA oligonucleotides, measured as fluorescence at 594 nm. To generate a functional strand incision and increase turn-over this assay is coupled to APE1.
Would you mind telling me the reported inhibition of each entry?

Look at this molecule and give its reported inhibition. Cc1nc(C#Cc2cccnc2)cs1 -8.43%

What does the data say about its inhibition? Entry: N#Cc1c(O)nc(SCc2cccc(F)c2F)nc1C1CC1 14.3%

May I ask what inhibition has been recorded for CCC[C@@H]1CNCc2c1[nH]c(=O)c(C#N)c2N1CCC2(CC1)CC2 ? 17.4%

====

Provide the recorded inhibition for the entries that follow.
measurement.target: Single-strand selective monofunctional uracil DNA glycosylase (Homo sapiens) (UniProt Q53HV7);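 note: enzymatic SMUG1 assay coupled with APE1, reading fluorescence at 594 nm released when a quenched double-stranded DNA oligonucleotide substrate is cleaved and separated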
Sequence (Q53HV7 whole entry): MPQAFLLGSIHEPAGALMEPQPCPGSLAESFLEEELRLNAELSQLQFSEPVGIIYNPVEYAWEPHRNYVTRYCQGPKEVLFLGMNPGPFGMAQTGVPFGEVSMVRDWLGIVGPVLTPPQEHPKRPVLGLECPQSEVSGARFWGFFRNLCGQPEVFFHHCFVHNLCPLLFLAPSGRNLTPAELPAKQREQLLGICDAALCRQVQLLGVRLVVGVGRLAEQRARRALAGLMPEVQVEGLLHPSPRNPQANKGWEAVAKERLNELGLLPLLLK
condition: Compound Concentration 10.0 uM, Hit No
Output spec: scalar in %, unitless text.

Look up inhibition for this compound: NCCc1c[nH]c2ccc(C(N)=O)cc12 0.209

Look up inhibition for this compound: CCCCCCCC/C=C\CCCCCCCC(N)=O -2.07

Requested field: inhibition. Item: CCOP(=O)(OCC)C(=Cc1cc(C(C)(C)C)c(O)c(C(C)(C)C)c1)P(=O)(OCC)OCC 3.52

What does the data say about its inhibition? Entry: N#Cc1ccc(NC(=O)Nc2ccccc2Br)c2nn[nH]c12 7.57

Field request: inhibition | item: CCC(=O)N[C@H]1CC[C@@H](C(=O)N(C)c2ccc(-c3nc4ccccc4o3)cc2)C1 9.01

Return reported inhibition; argument: O=c1nc(-c2ccccn2)sc2ccccc12 5.03

I have this compound here, Nc1ncnc2c1ncn2[C@@H]1O[C@H](CO)[C@@H](O)[C@H]1O , and I need its recorded inhibition. -2.21

Could you share which inhibition value was measured for CN([C@@H]1CCc2c(CC(=O)O)c3ccccc3n2C1)S(=O)(=O)c1ccc(F)cc1 ? 15.5

Sample Cc1cc(C)cc(C(=O)N(C)[C@H](Cc2ccc(-c3ccccc3)cc2)C(=O)N[C@@H](Cc2c[nH]c3ccccc23)C(=O)O)c1 — what was its inhibition? 4.62

Recorded inhibition for O=S1(=O)c2cccc3cccc(c23)N1CCCN1CCN(c2ccc(F)cc2)CC1 , please? 12.8

Param item = COc1cc(Nc2nc(C)cc(-c3cnn4nc(OC)ccc34)n2)cc(C(F)(F)F)c1 ; retrieve measured inhibition. 16.3

I'd like to know its inhibition. The compound in question is CCOCCn1cc(C(=O)Nc2ccc(-n3nc(-c4cccnc4)cc3C(F)(F)F)cn2)ccc1=O 18.6

// query inhibition value for entry CC(C)(C)c1ccc(C(=O)Nc2cn3cc(-n4ccnc4)ccc3n2)cc1 16.9

Quick check: inhibition of CCOC(=O)C1=C(C)NC(C)=C(C(=O)OC)C1c1cccc([N+](=O)[O-])c1 (stereo not drawn) ? 2.81

Endpoint output: inhibition of CN(C)C(=O)N[C@H]1CC[C@H](CCN2CCN(c3cccc(Cl)c3Cl)CC2)CC1 . Value? 1.03

Query (compound): CC(C)(O)CCn1c(=O)n(C(=O)N[C@H](C(N)=O)C(C)(C)C)c2ccccc21 ; field requested: inhibition -3.57

Given the compound COc1cc(N2CCC(O)CC2)ccc1Nc1cc(Nc2ccccc2S(=O)(=O)C(C)C)c2cc[nH]c2n1 , what is its reported inhibition? 4.55

// inhibition lookup, key: O=S(=O)(Nc1nnc2cc(OCC34CC5CC(CC(C5)C3)C4)c(C3CC3)cn12)C1CC1 11.5

Please give the measured inhibition for this compound: O=C(O)CCc1ccc(NCc2cccc(Oc3ccccc3)c2)cc1 -4.08

Entry under review: Cn1ncc2c(-c3c(-c4ccc(F)cn4)nn4c3COC(C)(C)C4)ccnc21 . Reported inhibition? 3.56

# input compound: Cc1c(CC(=O)O)c2cccnc2n1Cc1ccc(S(C)(=O)=O)cc1C(F)(F)F ; wanted: its inhibition -4.39

Which inhibition reading was recorded for the compound OCCn1cc(-c2cnc3nnn(Cc4ccc5ncccc5c4)c3n2)cn1 ? 18.6

Query: inhibition; subject: CN(C)C(=O)C(CCN1CCC(O)(c2ccc(Cl)cc2)CC1)(c1ccccc1)c1ccccc1 -1.44

====

measurement.target: UniProtKB Q9UIF7
Sequence (Q9UIF7 whole entry): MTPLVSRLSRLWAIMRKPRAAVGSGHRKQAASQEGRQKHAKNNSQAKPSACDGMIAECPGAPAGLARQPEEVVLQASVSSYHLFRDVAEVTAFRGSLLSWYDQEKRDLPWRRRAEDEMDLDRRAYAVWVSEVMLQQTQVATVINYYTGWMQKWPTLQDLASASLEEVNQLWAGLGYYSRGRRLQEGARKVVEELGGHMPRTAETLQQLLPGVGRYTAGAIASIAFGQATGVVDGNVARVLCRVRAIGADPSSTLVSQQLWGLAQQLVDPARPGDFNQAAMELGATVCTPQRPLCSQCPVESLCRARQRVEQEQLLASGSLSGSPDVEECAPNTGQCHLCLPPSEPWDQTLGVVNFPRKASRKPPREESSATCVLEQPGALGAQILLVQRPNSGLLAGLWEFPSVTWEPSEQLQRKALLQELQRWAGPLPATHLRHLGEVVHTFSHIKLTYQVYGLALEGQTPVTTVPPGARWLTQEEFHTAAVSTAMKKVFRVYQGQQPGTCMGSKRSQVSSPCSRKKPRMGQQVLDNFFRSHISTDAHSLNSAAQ
condition: Compound Concentration 10.0 uM, Hit No
experimental.endpoint: inhibition (%)
Respond numerically; units are % and should not be typed.

Record request: inhibition value, item FC(F)(F)c1ccc(N2CCNCC2)nc1Cl -0.34

Item CCNC(=O)N1CCCN(c2ccc(C(=O)NCCc3ccc(Cl)cc3Cl)cc2NC(=O)c2cccc(Cl)c2)CC1 has what recorded inhibition? 5.24

What value of inhibition has been recorded for this entry: CC[C@@H]1C(=O)N(C)c2cnc(Nc3ccc(C(=O)NC4CCN(C)CC4)cc3OC)nc2N1C1CCCC1 38.1

# input compound: CC(=O)N1CCC(c2ccc(C(=O)NC3=NCCN3)cc2C(F)(F)F)CC1 ; wanted: its inhibition 6.4

Given CCCCC[C@H](O)/C=C/[C@H]1CCC(=O)[C@@H]1CCCCCCC(=O)O , state its recorded inhibition. 15.9

Returns the measured inhibition for the input compound. Input: CCCN(CCC)[C@@H]1CCc2ccc3[nH]c(C#N)cc3c2C1 46.8

Fill blank: measured inhibition of the compound COc1c(C(=O)/C=C/c2ccccc2)c(O)c(OC)c2occc12 is ____. 19.8

For the compound O=C(Nc1ccccc1Br)N[C@@H]1CCN(c2ccc(C(F)(F)F)cn2)C1 , what inhibition is on record? 26.9
